Would you mind telling me the reported Huh7_HIBIT-HSD17β13_DC50 GMean Asymptote Maximum of each entry?
# System: HiBiT-HSD17β13 fusion protein (N-terminal HiBiT-tagged HSD17β13 isoform D) in Huh7 HiBiT-HSD17β13 OE cells
# protocolDetails: Whole-cell Huh7-HSD17B13 HiBiT assay (degrader potency and maximal efficacy, luminescence readout)
# Assay type: cell-based, human
# conditions: 24 hour incubation, max. concentration 1 μM, geometric mean, * = geometric mean for all forms tested (parent and salt forms)
Where a name gives a salt, the structure may show the parent alone.
Answer format: numeric, % implied, no suffix.

Query block: Return reported Huh7_HIBIT-HSD17β13_DC50 GMean Asymptote Maximum; argument: Cn1c(=O)n(C2CCC(=O)NC2=O)c2ccc(CCCN3Cc4cnc(-c5ccc6cn([C@H]7CC[C@H](CNC(=O)c8cc(F)c(O)c(F)c8F)CC7)nc6c5)cc4C3)cc21 (mixture of isomers) [Example 119, formate salt]
Result block: 75

Query block: Same lookup for Cc1ccc(C(=O)N2CCC3(CC2)CC(N2CCN(c4ncc(-c5ccc6cn(C7CCC(CNC(=O)c8cc(F)c(O)c(F)c8F)CC7)nc6c5)cn4)CC2)CO3)cc1N1CCC(=O)NC1=O (stereo not drawn) [Example 11] , please.
Result block: 81

Query block: Same lookup for O=C1CCN(c2cc(C(=O)N3CCC4(CCC(N5CCN(c6ccc7cn([C@H]8CC[C@H](CNC(=O)c9cc(F)c(O)c(F)c9)CC8)nc7c6)CC5)CC4)CC3)ccc2Cl)C(=O)N1 [Example 110] , please.
Result block: 77

Query block: Same lookup for Cn1c(=O)n(C2CCC(=O)NC2=O)c2ccc(CCN3Cc4ccc(-c5ccc6cn([C@H]7CC[C@H](CNC(=O)c8cc(F)c(O)c(F)c8F)CC7)nc6c5)cc4C3)cc21 (mixture of isomers) [Example 106, trifluoroacetate salt] , please.
Result block: 80

Query block: Same lookup for Cn1c(=O)n(C2CCC(=O)NC2=O)c2ccc(CCN3CCN(c4ccc(-c5noc([C@]67CC[C@](CNC(=O)c8cc(F)c(O)c(F)c8F)(CC6)CC7)n5)nn4)CC3)cc21 (mixture of isomers) [Example 55, trifluoroacetate salt] , please.
Result block: 82

Query block: Same lookup for Cc1ccc(C(=O)N2CCC(CN3CCN(c4ncc(-c5ccc6cn(C78CCC(CNC(=O)c9cc(F)c(O)c(F)c9F)(CC7)CC8)nc6c5)cn4)CC3)CC2)cc1N1CCC(=O)NC1=O [Example 114] , please.
Result block: 77

Query block: Same lookup for Cc1ccc(C(=O)N2CCC(CCCn3cc(-c4ccc5cn([C@H]6CC[C@H](CNC(=O)c7cc(F)c(O)c(F)c7)CC6)nc5c4)cn3)CC2)cc1N1CCC(=O)NC1=O [Example 23] , please.
Result block: 75

Query block: Same lookup for COc1c(C(=O)NC[C@]23CC[C@](c4noc(-c5ccnc(N6CCN(CCCc7ccc8c(c7)n(C)c(=O)n8C7CCC(=O)NC7=O)CC6)n5)n4)(CC2)CC3)cc(F)c(O)c1F (mixture of isomers) [Example 124, trifluoroacetate salt] , please.
Result block: 72

Query block: Same lookup for Cl.Cn1c(=O)n(C2CCC(=O)NC2=O)c2cccc(CN3CCN(c4ncc(-c5ccc6cn([C@H]7CC[C@H](CNC(=O)c8cc(F)c(O)c(F)c8F)CC7)nc6c5)cn4)CC3)c21 (mixture of isomers) [Example 25] , please.
Result block: 84

Values from patent US20240238425A1
